Reported RLM % inh. @ 500 nM by item:
Tested on: 20-HETE formation (CYP4) in RLM
Assay Details: Inhibition of 20-HETE formation at 250 or 500 nM in RLM microsomal incubations
Assay type: biochemical, rat
Measurement Setup: 500 nM compound; RLM 300 μg/ml

{"Compound": "Cc1n[nH]cc1N1CCC(c2ccccc2)CC1 [Compound 37]", "RLM % inh. @ 500 nM, %": 0.00}
{"Compound": "Cc1cccc(C2CCN(c3cn[nH]c3)CC2)c1 [Compound 34]", "RLM % inh. @ 500 nM, %": 44.00}
{"Compound": "Cc1cccc(CC2CCN(c3ccn[nH]3)CC2)c1 [Compound 97]", "RLM % inh. @ 500 nM, %": 0.00}
{"Compound": "COc1cc(C2CCN(c3ccn[nH]3)CC2)ccc1F [Compound 74]", "RLM % inh. @ 500 nM, %": 0.00}
{"Compound": "Cc1ccc(C2CCN(c3ccn[nH]3)CC2)cc1 [Compound 23]", "RLM % inh. @ 500 nM, %": 0.00}
{"Compound": "c1ccc(CC2CCN(c3ccn[nH]3)CC2)cc1 [Compound 2, 4-Benzyl-1-(1H-pyrazol-5-yl)piperidine]", "RLM % inh. @ 500 nM, %": 0.00}
{"Compound": "COc1ccc(C2CCN(c3ccn[nH]3)CC2)cc1F [Compound 43]", "RLM % inh. @ 500 nM, %": 17.00}
{"Compound": "COc1cncc(C2CCN(c3ccn[nH]3)CC2)c1 [Compound 60]", "RLM % inh. @ 500 nM, %": 0.00}
{"Compound": "COc1ccc(N2CCN(c3cn[nH]c3)CC2)cc1 [Compound 6]", "RLM % inh. @ 500 nM, %": 0.00}
{"Compound": "O=C1CCCN1Cc1ccc(C2CCN(c3cn[nH]c3)CC2)cc1F [Compound 109]", "RLM % inh. @ 500 nM, %": 62.70}
{"Compound": "Cc1cccc(CC2CCN(c3cn[nH]c3)CC2)c1 [Compound 94]", "RLM % inh. @ 500 nM, %": 13.50}
{"Compound": "Clc1cccc(CC2CCN(c3ccn[nH]3)CC2)c1 [Compound 91]", "RLM % inh. @ 500 nM, %": 0.00}
{"Compound": "O=C1CCCN1c1ccc(C2CCN(c3cn[nH]c3)CC2)cc1 [Compound 100]", "RLM % inh. @ 500 nM, %": 42.90}
{"Compound": "COc1ccc(C2CCN(c3ccn[nH]3)CC2)cc1Cl [Compound 67]", "RLM % inh. @ 500 nM, %": 30.20}
{"Compound": "O=C1CCCN1c1ccc(CC2CCN(c3cn[nH]c3)CC2)cc1 [Compound 107]", "RLM % inh. @ 500 nM, %": 63.60}
{"Compound": "CCS(=O)(=O)c1ccc(C2CCN(c3cn[nH]c3)CC2)cc1 [Compound 52]", "RLM % inh. @ 500 nM, %": 13.40}
{"Compound": "FC(F)(F)c1ccnc(C2CCN(c3ccn[nH]3)CC2)c1 [Compound 87]", "RLM % inh. @ 500 nM, %": 2.70}
{"Compound": "FC(F)(F)c1cncc(C2CCN(c3ccn[nH]3)CC2)c1 [Compound 103]", "RLM % inh. @ 500 nM, %": 0.00}
{"Compound": "Cc1ccccc1C1CCN(c2cn[nH]c2)CC1 [Compound 36]", "RLM % inh. @ 500 nM, %": 0.00}
{"Compound": "Cc1ccc(C2CCN(c3cn[nH]c3)CC2)cc1 [Compound 24]", "RLM % inh. @ 500 nM, %": 16.30}
{"Compound": "Fc1ccccc1C1CCN(c2cn[nH]c2)CC1 [Compound 51]", "RLM % inh. @ 500 nM, %": 53.00}
{"Compound": "O=S(=O)(c1ccc(C2CCN(c3cn[nH]c3)CC2)cc1)N1CCCC1 [Compound 85]", "RLM % inh. @ 500 nM, %": 0.00}
{"Compound": "c1ccc(SC2CCN(c3ccn[nH]3)CC2)cc1 [Compound 39]", "RLM % inh. @ 500 nM, %": 0.00}
{"Compound": "COc1cc(F)cc(C2CCN(c3ccn[nH]3)CC2)c1 [Compound 73]", "RLM % inh. @ 500 nM, %": 0.00}
{"Compound": "O=S(=O)(Nc1ccc(C2CCN(c3cn[nH]c3)CC2)cc1)C1CC1 [Compound 114]", "RLM % inh. @ 500 nM, %": 36.70}
{"Compound": "Fc1ccc(C2CCN(c3ccn[nH]3)CC2)cc1 [Compound 18]", "RLM % inh. @ 500 nM, %": 41.00}
{"Compound": "O=C(c1ccc(C2CCN(c3cn[nH]c3)CC2)cc1)N1CCCC1 [Compound 77]", "RLM % inh. @ 500 nM, %": 13.80}
{"Compound": "c1cnc(N2CCN(c3cn[nH]c3)CC2)nc1 [Compound 4]", "RLM % inh. @ 500 nM, %": 0.00}
{"Compound": "Fc1ccccc1SC1CCN(c2cn[nH]c2)CC1 [Compound 92]", "RLM % inh. @ 500 nM, %": 0.00}
{"Compound": "Fc1cccc(C2CCN(c3cn[nH]c3)CC2)c1 [Compound 49]", "RLM % inh. @ 500 nM, %": 31.00}
{"Compound": "COc1ccc(C2CCN(c3ccn[nH]3)CC2)c(Cl)c1 [Compound 66]", "RLM % inh. @ 500 nM, %": 0.00}
{"Compound": "COc1ccc(C2CCN(c3cn[nH]c3)CC2)cn1 [Compound 32]", "RLM % inh. @ 500 nM, %": 0.00}
{"Compound": "Fc1ccc(SC2CCN(c3cn[nH]c3)CC2)cc1 [Compound 70]", "RLM % inh. @ 500 nM, %": 35.70}
{"Compound": "COC(=O)c1ccc(C2CCN(c3ccn[nH]3)CC2)cc1 [Compound 11]", "RLM % inh. @ 500 nM, %": 3.60}
{"Compound": "O=S(=O)(c1ccc(C2CCN(c3ccn[nH]3)CC2)cc1)N1CCCC1 [Compound 96]", "RLM % inh. @ 500 nM, %": 0.00}
{"Compound": "O=S1(=O)CCc2cc(C3CCN(c4ccn[nH]4)CC3)ccc21 [Compound 106]", "RLM % inh. @ 500 nM, %": 0.00}
{"Compound": "Fc1ccc(C2CCN(c3cn[nH]c3)CC2)cc1 [Compound 17]", "RLM % inh. @ 500 nM, %": 57.00}
{"Compound": "O=[N+]([O-])c1ccc(C2CCN(c3ccn[nH]3)CC2)cc1 [Compound 112]", "RLM % inh. @ 500 nM, %": 20.30}
{"Compound": "CC(=O)Nc1ccc(C2CCN(c3ccn[nH]3)CC2)cc1 [Compound 29]", "RLM % inh. @ 500 nM, %": 38.00}
{"Compound": "Clc1cccc(C2CCN(c3cn[nH]c3)CC2)c1 [Compound 61]", "RLM % inh. @ 500 nM, %": 61.00}

====

System: 20-HETE formation (CYP4) in RKM
Assay Details: Inhibition of 20-HETE formation at 250 or 500 nM in RKM microsomal incubations
Type: biochemical, rat
Measurement Setup: 250 nM compound; RKM 300 μg/ml
RKM % inh. @ 250 nM values, listed per item

{"Compound": "c1ccc(C2CCN(c3cn[nH]c3)CC2)cc1 [Compound 1, 4-Phenyl-1-(1H-pyrazol-4-yl)piperidine]", "Experimental Target": "20-HETE formation (CYP4) in RKM", "RKM % inh. @ 250 nM [%]": 18.00}
{"Compound": "c1ccc(OC2CCN(c3ccn[nH]3)CC2)cc1 [Compound 55, 4-Phenoxy-1-(1H-pyrazol-5-yl)piperidine]", "Experimental Target": "20-HETE formation (CYP4) in RKM", "RKM % inh. @ 250 nM [%]": 0.00}
{"Compound": "c1ccc(N2CCN(c3ccn[nH]3)CC2)cc1 [Compound 53, 1-Phenyl-4-(1H-pyrazol-5-yl)piperazine]", "Experimental Target": "20-HETE formation (CYP4) in RKM", "RKM % inh. @ 250 nM [%]": 8.20}
{"Compound": "c1ccc(C2CCN(c3ccn[nH]3)CC2)cc1 [Compound 54, 4-Phenyl-1-(1H-pyrazol-5-yl)piperidine]", "Experimental Target": "20-HETE formation (CYP4) in RKM", "RKM % inh. @ 250 nM [%]": 0.00}

====

Attribute: RLM % inh. @ 250 nM
System: 20-HETE formation (CYP4) in RLM
Assay Details: Inhibition of 20-HETE formation at 250 or 500 nM in RLM microsomal incubations
Type: biochemical, rat
Measurement Setup: 250 nM compound; RLM 300 μg/ml

{"Compound": "c1ccc(OC2CCN(c3ccn[nH]3)CC2)cc1 [Compound 55, 4-Phenoxy-1-(1H-pyrazol-5-yl)piperidine]", "Experimental Target": "20-HETE formation (CYP4) in RLM", "RLM % inh. @ 250 nM, %": 0.00}
{"Compound": "c1ccc(C2CCN(c3cn[nH]c3)CC2)cc1 [Compound 1, 4-Phenyl-1-(1H-pyrazol-4-yl)piperidine]", "Experimental Target": "20-HETE formation (CYP4) in RLM", "RLM % inh. @ 250 nM, %": 27.40}
{"Compound": "c1ccc(C2CCN(c3ccn[nH]3)CC2)cc1 [Compound 54, 4-Phenyl-1-(1H-pyrazol-5-yl)piperidine]", "Experimental Target": "20-HETE formation (CYP4) in RLM", "RLM % inh. @ 250 nM, %": 12.00}
{"Compound": "c1ccc(N2CCN(c3ccn[nH]3)CC2)cc1 [Compound 53, 1-Phenyl-4-(1H-pyrazol-5-yl)piperazine]", "Experimental Target": "20-HETE formation (CYP4) in RLM", "RLM % inh. @ 250 nM, %": 4.30}
